These data points were gathered from patent US20240116997A1.

List of EC50 (pM), HEK-Blue IL-18R reporter assay values.
Target: T1, IL-18 receptor (IL-18Rαβ) on cells (UniProt Q13478 19-541; O95256 20-599, limits assumed)
T1 sequence (looked up) 1: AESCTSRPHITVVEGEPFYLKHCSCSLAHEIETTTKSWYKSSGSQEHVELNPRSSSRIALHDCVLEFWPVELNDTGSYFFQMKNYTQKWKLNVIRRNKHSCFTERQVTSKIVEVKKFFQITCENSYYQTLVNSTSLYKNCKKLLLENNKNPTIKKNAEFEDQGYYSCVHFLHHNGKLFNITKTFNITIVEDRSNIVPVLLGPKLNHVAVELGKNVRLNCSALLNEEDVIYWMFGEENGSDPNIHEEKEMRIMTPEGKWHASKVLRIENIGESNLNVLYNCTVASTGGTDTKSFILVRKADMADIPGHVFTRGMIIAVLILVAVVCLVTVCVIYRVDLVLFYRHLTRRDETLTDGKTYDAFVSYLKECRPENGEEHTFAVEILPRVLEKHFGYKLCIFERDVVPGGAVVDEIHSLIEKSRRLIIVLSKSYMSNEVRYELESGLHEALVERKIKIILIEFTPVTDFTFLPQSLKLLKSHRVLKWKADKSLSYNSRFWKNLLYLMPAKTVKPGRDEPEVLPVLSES
T1 sequence (looked up) 2: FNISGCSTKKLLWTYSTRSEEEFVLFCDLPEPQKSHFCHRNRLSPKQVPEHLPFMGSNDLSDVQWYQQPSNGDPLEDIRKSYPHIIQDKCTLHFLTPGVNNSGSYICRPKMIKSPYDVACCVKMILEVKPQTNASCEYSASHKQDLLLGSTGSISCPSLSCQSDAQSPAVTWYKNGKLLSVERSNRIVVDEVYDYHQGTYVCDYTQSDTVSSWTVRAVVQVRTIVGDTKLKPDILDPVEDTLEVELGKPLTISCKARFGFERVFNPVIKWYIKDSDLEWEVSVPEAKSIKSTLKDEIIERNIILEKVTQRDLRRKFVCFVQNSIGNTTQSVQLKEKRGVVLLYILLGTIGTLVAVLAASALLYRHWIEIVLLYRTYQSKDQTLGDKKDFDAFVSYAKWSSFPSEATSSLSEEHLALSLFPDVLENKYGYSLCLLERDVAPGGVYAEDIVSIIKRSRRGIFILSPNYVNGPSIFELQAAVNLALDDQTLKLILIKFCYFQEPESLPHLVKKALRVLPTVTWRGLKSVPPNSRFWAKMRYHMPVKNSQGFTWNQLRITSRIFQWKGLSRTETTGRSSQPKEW
Test: cell-based or functional assay

>>> val("C179 (E6K, K8E, V11I, C38A, K53A, T63A, C76A, Q103R, C127A) (ligand) YFGKLKSELSIIRNLNDQVLFIDQGNRPLFEDMTDSDARDNAPRTIFIISMYADSQPRGMAVAISVKCEKISTLSAENKIISFKEMNPPDNIKDTKSDIIFFRRSVPGHDNKMQFESSSYEGYFLAAEKERDLFKLILKKEDELGDRSIMFTVQNED")
"0.4 pM"

Any idea what EC50 (pM), HEK-Blue IL-18R reporter assay was measured for C164 (V11I, C38A, S55H, C76A, C127A) (ligand) YFGKLESKLSIIRNLNDQVLFIDQGNRPLFEDMTDSDARDNAPRTIFIISMYKDHQPRGMAVTISVKCEKISTLSAENKIISFKEMNPPDNIKDTKSDIIFFQRSVPGHDNKMQFESSSYEGYFLAAEKERDLFKLILKKEDELGDRSIMFTVQNED ?
3.14 pM

Same again, this time with IL-18 polypeptide SEQ ID NO: 60 (E6K, C38Q, K53A) (ligand) YFGKLKSKLSVIRNLNDQVLFIDQGNRPLFEDMTDSDQRDNAPRTIFIISMYADSQPRGMAVTISVKCEKISTLSCENKIISFKEMNPPDNIKDTKSDIIFFQRSVPGHDNKMQFESSSYEGYFLACEKERDLFKLILKKEDELGDRSIMFTVQNED
0.203 pM

Same again, this time with C144 (V11I, C38A, K53A, T63A, C76A, C127A) (ligand) YFGKLESKLSIIRNLNDQVLFIDQGNRPLFEDMTDSDARDNAPRTIFIISMYADSQPRGMAVAISVKCEKISTLSAENKIISFKEMNPPDNIKDTKSDIIFFQRSVPGHDNKMQFESSSYEGYFLAAEKERDLFKLILKKEDELGDRSIMFTVQNED
0.17 pM

Same again, this time with C161 (K8R, V11I, C38A, C76A, Q103E, C127A) (ligand) YFGKLESRLSIIRNLNDQVLFIDQGNRPLFEDMTDSDARDNAPRTIFIISMYKDSQPRGMAVTISVKCEKISTLSAENKIISFKEMNPPDNIKDTKSDIIFFERSVPGHDNKMQFESSSYEGYFLAAEKERDLFKLILKKEDELGDRSIMFTVQNED
2.01 pM

Same again, this time with C167 (V11I, C38A, C76A, S105I, C127A) (ligand) YFGKLESKLSIIRNLNDQVLFIDQGNRPLFEDMTDSDARDNAPRTIFIISMYKDSQPRGMAVTISVKCEKISTLSAENKIISFKEMNPPDNIKDTKSDIIFFQRIVPGHDNKMQFESSSYEGYFLAAEKERDLFKLILKKEDELGDRSIMFTVQNED
5.37 pM

Same again, this time with C145 (V11I, C38A, K53A, S55A, C76A, C127A) (ligand) YFGKLESKLSIIRNLNDQVLFIDQGNRPLFEDMTDSDARDNAPRTIFIISMYADAQPRGMAVTISVKCEKISTLSAENKIISFKEMNPPDNIKDTKSDIIFFQRSVPGHDNKMQFESSSYEGYFLAAEKERDLFKLILKKEDELGDRSIMFTVQNED
3.63 pM
